In this section, each of the compounds is paired with its reported IC50.
- Assay system: Human MAT2A (Homo sapiens)
- Sequence (P31153 whole entry): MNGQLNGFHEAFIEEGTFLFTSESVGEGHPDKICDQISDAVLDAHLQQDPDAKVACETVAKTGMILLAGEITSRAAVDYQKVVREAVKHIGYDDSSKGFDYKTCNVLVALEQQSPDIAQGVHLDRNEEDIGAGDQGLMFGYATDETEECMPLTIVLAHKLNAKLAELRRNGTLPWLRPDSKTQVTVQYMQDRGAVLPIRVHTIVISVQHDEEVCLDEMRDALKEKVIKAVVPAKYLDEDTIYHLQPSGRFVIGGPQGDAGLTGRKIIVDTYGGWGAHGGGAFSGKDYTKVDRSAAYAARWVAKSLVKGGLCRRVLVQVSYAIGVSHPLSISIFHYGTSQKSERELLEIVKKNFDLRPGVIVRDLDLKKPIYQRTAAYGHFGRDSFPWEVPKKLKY
Field format: number, assumed nM, no unit text.

# Nc1nc(=O)n(-c2ccccc2Cl)c2nc(C(F)(F)F)ccc12 (single isomer, unassigned) [Atropisomer Ia] with Human MAT2A (Homo sapiens): IC50 is 3

# Nc1nc(=O)n(-c2ccccc2Cl)c2nc(C(F)(F)F)ccc12 (atropisomer, axis not shown) [Atropisomer Ib] with Human MAT2A (Homo sapiens): IC50 is 60

These data points were gathered from patent US20260200913A1.
